This collection of values is drawn from the supplement of paper PMC11451515.

test system: SEM cells; assay: cell viability relative to DMSO control; higher = less cytotoxic; details: HPLM + 10% dialyzed FBS; 48 h; 15.4 µM
Group membership follows cell viability per the scheme A (below 20%), B (20% to below 70%), C (70% or more)

Task item: Category of C[C@@H]1CC[C@@]2(OC1)O[C@H]3C[C@H]4[C@@H]5C/C=C6/C[C@H](CC[C@]6(C)[C@H]5CC[C@]4(C)[C@H]3[C@@H]2C)O[C@@H]7O[C@H](CO)[C@@H](O[C@@H]8O[C@@H](C)[C@H](O)[C@@H](O)[C@H]8O)[C@H](O)[C@H]7O[C@@H]9O[C@@H](C)[C@H](O)[C@@H](O)[C@H]9O , please.
Reply: C

Task item: Hi, small favor: classify CNC(=O)c1ccc(Nc2ncc(C(F)(F)F)c(NCc3nccnc3N(C)[S+](C)(=O)[O-])n2)cc1 by its cell viability when you get a moment.
Reply: A

Task item: The entry to classify is COc1cc2ncnc(-n3nc(-c4ccccn4)nc3N)c2cc1OC ; which class holds it?
Reply: B

Task item: Assign a bin to Nc1ccccc1NC(=O)c1ccc(CNc2nccc(-c3cccnc3)n2)cc1
Reply: A

Task item: Assign a category based on measured cell viability for COc1cc(N2CCC(C(N)=O)CC2)ccc1Nc1nc(N)c(Cl)c(Nc2ccccc2[S+](=O)([O-])C(C)C)n1 and give only the class name.
Reply: A

Task item: Determine which band this compound sits in: C[C@@H]1C[C@H]2[C@@H]3\C=C(C)/C4=C/C5=C(C[C@]4(C)[C@H]3[C@@H](O)C[C@]2(C)[C@@]1(O)C(=O)COC(C)=O)C=N[N]5C6=CC=CC=C6
Reply: B

Task item: Which cell viability category applies to Fc1ccc(C(c2ccc(F)cc2)N2CCN(C/C=C/c3ccccc3)CC2)cc1 here?
Reply: C

Task item: Which bin should I file CC(C)(C)/[N+]([O-])=C/c1ccc([S+](=O)([O-])[O][Na])cc1[S+](=O)([O-])[O][Na] under?
Reply: C

Task item: Band for the recorded cell viability of C#CCN(C)[C@H](C)Cc1ccccc1 ?
Reply: C

Task item: Quick check: band for C[C@H](NC(=O)C(=O)Nc1ccccc1C(C)(C)C)C(=O)N[C@@H](CC(=O)O)C(=O)COc1c(F)c(F)cc(F)c1F
Reply: A

Task item: Band for Cc1nc(Nc2ncc(C(=O)Nc3c(C)cccc3Cl)s2)cc(N2CCN(CCO)CC2)n1 ?
Reply: B

Task item: Which band does CC[C@H]1OC(=O)[C@H](C)[C@@H](O[C@H]2C[C@@](C)(OC)[C@@H](O)[C@H](C)O2)[C@H](C)[C@@H](O[C@@H]2O[C@@H](C)C[C@H](N(C)C)[C@H]2O)[C@](C)(O)C[C@@H](C)C(=O)[C@H](C)[C@@H](O)[C@]1(C)O fall in?
Reply: C

Task item: Please indicate the class for O=C(NC1CCNCC1)c1n[nH]cc1NC(=O)c1c(Cl)cccc1Cl based on its cell viability.
Reply: A

###

test system: SEM cells; assay: cell viability relative to DMSO control; higher = less cytotoxic; conditions: RPMI 5 mM glucose + 10% dialyzed FBS; 48 h; 0.19 µM
Kindly state cell viability for each of the entries shown.
Report as a plain number; the unit % is understood.

Task item: Please respond with reported cell viability (system SEM cells) for COc1nc(-c2ccc3c(c2)OCO3)n(-c2ccc(NC(=O)CSc3ccccc3)cc2)n1 .
Reply: 102

Task item: GET cell viability where system = SEM cells and item = COc1cc2nccc(Oc3ccc(NC(=O)Nc4ccc(F)cc4F)c(F)c3)c2cc1OC
Reply: 37

Task item: State cell viability (SEM cells) of O=C1CSC(=O)N1C(CCc1ccncc1)COc1ccc(-c2cccc([N+](=O)[O-])c2)cc1 (stereo not drawn) .
Reply: 116

Task item: Would you please give the reported cell viability of NC(=O)c1ccc(-c2nc(-c3ccc4c(c3)OCCO4)c(-c3ccccn3)[nH]2)cc1 with SEM cells?
Reply: 118

Task item: Report cell viability from SEM cells testing of CC(=O)N1CCN(c2ccc(OCc3nn(C)c(C)c3-c3cccc4c(CCCOc5cc(C)c(Cl)c(C)c5)c(C(=O)O)n(Cc5cccnc5)c34)cc2)CC1
Reply: 112

Task item: Please respond with reported cell viability (system SEM cells) for Cn1c2ccccc2c2c3c(c4c5ccccc5n(CCC#N)c4c21)CNC3=O .
Reply: 107

Task item: Name the value of cell viability reported for CC/1=C/N([C@@H]2C[C@@H](O)[C@H](CO)O2)C(=O)NC1=O when tested on SEM cells.
Reply: 64.3

Task item: Please report cell viability with SEM cells for item Cc1ccc(-n2nc(C(C)(C)C)cc2NC(=O)Nc2ccc(OCCN3CCOCC3)c3ccccc23)cc1 .
Reply: 90

###

tested on: P12-Ichikawa; test: cell viability relative to DMSO control; higher = less cytotoxic; conditions: HPLM + 10% dialyzed FBS; 48 h; 0.0632 µM
Assay Readout: cell viability (%)
State the answer as a number, implicitly in %.

Task item: Input C[C@H](NC(=O)C(=O)Nc1ccccc1C(C)(C)C)C(=O)N[C@@H](CC(=O)O)C(=O)COc1c(F)c(F)cc(F)c1F , output reported cell viability.
Reply: 125

Task item: Dear colleague, please send me the reported cell viability for COC(=O)N1CCN(Cc2cccc(NC(=O)Nc3ccc(C)nc3)c2F)CC1 when you can.
Reply: 102

Task item: Give reported cell viability value for C=C(C)[C@@H]1CC[C@]2(C)CC[C@]3(C)[C@H](CC[C@@H]4[C@@]5(C)CC[C@H](O)C(C)(C)[C@@H]5CC[C@]43C)[C@@H]12
Reply: 127

Task item: Give cell viability for C#Cc1cccc(Nc2ncnc3cc(OCCOC)c(OCCO)cc23)c1
Reply: 112

###

tested on: NOMO1; assay: AUC of viability dose-response curve (% viability x log10 dose units); higher = less sensitive; details: RPMI 5 mM glucose + 10% FBS; 48 h
Kindly state AUC of viability dose-response curve for each of the entries shown.
Form rule: numeric answer, no unit written next to it.

Task item: For the compound CN1C(=O)C(Cc2c[nH]c3ccccc23)NC1=S (stereo not given) , report AUC of viability dose-response curve.
Reply: 448

Task item: Indicate the recorded AUC of viability dose-response curve value for this compound: Cc1cccc(C)c1NC(=O)CN1CCCC1=O
Reply: 458

Task item: Name the recorded AUC of viability dose-response curve of the item CC/1=C/N([C@@H]2C[C@@H](O)[C@H](CO)O2)C(=O)NC1=O in your answer.
Reply: 408

Task item: Tell me measured AUC of viability dose-response curve for C[C@@H](c1ncncc1F)[C@](O)(Cn1cncn1)c1ccc(F)cc1F please.
Reply: 448

Task item: Please supply the value of reported AUC of viability dose-response curve for the item CC(C)(C)OC(=O)CN(Cc1ccc(Cl)cc1)Cc1ccc([N+](=O)[O-])s1
Reply: 436

###

test system: P12-Ichikawa; assay: cell viability relative to DMSO control; higher = less cytotoxic; details: RPMI 5 mM glucose + 10% dialyzed FBS; 48 h; 1.71 µM
Assay Readout: cell viability (%)
Give the quantity in %, number only.

Task item: Lab note: record cell viability of CNC(=O)[C@H](Cc1ccccc1)NC(=O)[C@H](CC(C)C)[C@H](CSc1cccs1)C(=O)NO tested on P12-Ichikawa.
Reply: 79.5

Task item: Provide the reported cell viability (system: P12-Ichikawa) for CN1C(=O)\C(=C/C(=C1/NC2=C(F)C=C(I)C=C2)C(=O)NOCCO)C
Reply: 90.9

Task item: GET cell viability | system: P12-Ichikawa | item: CNC(=O)c1cccc(-c2ccc3c(N4CCOC[C@@H]4C)nc(N4CCOC[C@@H]4C)nc3n2)c1
Reply: 58.1

Task item: Provide cell viability, tested on P12-Ichikawa, for ClC1=CC=C(CCCOC/2=N/NC(=O)C(=C2NCC3=CN=CC=C3)/Br)C=C1 .
Reply: 90.4

Task item: Give measured cell viability for Cc1nc(Nc2ncc(C(=O)Nc3c(C)cccc3Cl)s2)cc(N2CCN(CCO)CC2)n1 (P12-Ichikawa).
Reply: 99.3

Task item: Find the measured cell viability of O=C(NC1CCNCC1)c1n[nH]cc1NC(=O)c1c(Cl)cccc1Cl with P12-Ichikawa as test system.
Reply: 79.1

Task item: Consider the compound CSC1=CC(=CC=C1)NC2=NC3=C(C=N2)/C=C(C(=O)N3C)/C4=C(Cl)C=CC=C4Cl tested on P12-Ichikawa; state its cell viability.
Reply: 112

Task item: Lab note: P12-Ichikawa assay, enter cell viability for Cc1ccc(NC(=O)C2(c3ccc4c(c3)OC(F)(F)O4)CC2)nc1-c1cccc(C(=O)O)c1 here
Reply: 20.8

Task item: State, for P12-Ichikawa, measured cell viability of the compound listed here: Fc1ccc(C(c2ccc(F)cc2)N2CCN(C/C=C/c3ccccc3)CC2)cc1
Reply: 106

Task item: Retrieve cell viability on P12-Ichikawa; query O=C1Nc2ccccc2/C1=C1\Nc2ccccc2C1=O
Reply: 94.9

Task item: Give the observed cell viability of C[C@@H]1C[C@H]2[C@@H]3\C=C(C)/C4=C/C5=C(C[C@]4(C)[C@H]3[C@@H](O)C[C@]2(C)[C@@]1(O)C(=O)COC(C)=O)C=N[N]5C6=CC=CC=C6 for P12-Ichikawa.
Reply: 39.5

Task item: # return cell viability for COCCOC(=O)C/1=C(C)/NC/2=C(C1C3=CC=CC(=C3)O)/C(=O)CC(C2)C4=C(OC)C=CC=C4 (stereo not drawn) , test system: P12-Ichikawa
Reply: 94.7

Task item: Give cell viability for this entry on P12-Ichikawa: CCC[C@@H]1C[C@@H](C(=O)N[C@@H]([C@H]2O[C@H](SC)[C@H](O)[C@@H](O)[C@H]2O)[C@@H](C)O)N(C)C1.Cl
Reply: 70

Task item: Write down the reported cell viability (system: P12-Ichikawa) of CC(C)C[C@H](CN)CC(=O)O
Reply: 96.6

Task item: Specify the recorded cell viability for CN(N=O)C(=O)N[C@H]1C(O)OC(CO)[C@@H](O)[C@@H]1O (stereo partly drawn) , system: P12-Ichikawa.
Reply: 81.7

Task item: Enter cell viability (test system P12-Ichikawa) for CCOC(=O)Nc1ccc(NCc2ccc(F)cc2)cc1N
Reply: 111

Task item: Name the recorded cell viability of CCC1=C[C@@H]2CN(C1)Cc1c([nH]c3ccccc13)[C@@](C(=O)OC)(c1cc3c(cc1OC)N(C)[C@H]1[C@@](O)(C(=O)OC)[C@H](OC(C)=O)[C@]4(CC)C=CCN5CC[C@]31[C@@H]54)C2 , assay system P12-Ichikawa.
Reply: 25.4

Task item: # return cell viability for CC(C)(C)OC(=O)CN(Cc1ccc(Cl)cc1)Cc1ccc([N+](=O)[O-])s1 , test system: P12-Ichikawa
Reply: 86.6
